# System: CMV-luc
# PROTOCOL DESCRIPTION: Secondary assays, Bright-Glo luciferase in SC cells
# Format: cell-based
# CONDITION CONTEXT: minimum CMV-luc luciferase in SC cells over 12 doses
# Experimental: Compounds were plated at 2× concentrations in 25 μl in 384 well plates with each compound dose plated in triplicate. […] Cells were grown 24 hrs then assayed first by using the CellTiter-Fluor reagent (20 μl) followed by the addition of Bright-Glo ([…]) luciferase assay, using a multimode plate reader (Beckman DT880). […] IC50s were determined by the Hill coefficient method using an online tool (https://www.aatbio.com/tools/ic50-calculator). […]
Here the recorded min SC luc is given for each entry.

Illustrative cases are given below, each with its answer.
The recorded min SC luc for entry CC(C)c1cc(-c2n[nH]c(=O)n2-c2ccc3c(ccn3C)c2)c(O)cc1O equals 55.41%

The recorded min SC luc for entry CC1(C)CC(=O)c2c(C(F)(F)F)nn(-c3ccc(C(N)=O)c(N[C@H]4CC[C@H](O)CC4)c3)c2C1 equals 82.28%

The recorded min SC luc for entry S=C(NCCCN1CCOCC1)N1CCN(c2nc(-c3ccccc3)cs2)CC1 equals 79.3%

Read the next record carefully.
The recorded min SC luc for entry CNC(=O)c1cc(Oc2ccc(NC(=O)Nc3cc(C(C)(C)C)nn3-c3ccc4ncccc4c3)c(F)c2)ccn1 equals 60.58%
